System: Escherichia coli TOP10
Assay: shrunken log2 fold change of peptide-encoding DNA abundance (4.5 h post-induction vs induction); higher = less antimicrobial activity (less host growth inhibition)
Details: time post-induction: 4.5 h; library: site-saturation at positions 5, 18, 19, 20
I would appreciate it if you labelled entries Met when shrunken log2 fold change is -0.2 or higher, otherwise Not met.

Sequence data	Experimental system	Class assignment
RRIRWRPPRLPRPRPRPTIIPRP	Escherichia coli TOP10	Not met
RRIRCRPPRLPRPRPRPYAMPRP	Escherichia coli TOP10	Not met
RRIRERPPRLPRPRPRPVINPRP	Escherichia coli TOP10	Not met
RRIRARPPRLPRPRPRPWFCPRP	Escherichia coli TOP10	Met
RRIRKRPPRLPRPRPRPIMAPRP	Escherichia coli TOP10	Met
RRIRYRPPRLPRPRPRPQMFPRP	Escherichia coli TOP10	Met
RRIRPRPPRLPRPRPRPVVPPRP	Escherichia coli TOP10	Met
RRIRIRPPRLPRPRPRPLHMPRP	Escherichia coli TOP10	Not met
RRIRVRPPRLPRPRPRPETQPRP	Escherichia coli TOP10	Met

---

System: Escherichia coli TOP10;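 note: peptides expressed intracellularly from a pBAD plasmid library in pooled LB shake-flask culture, induced with 0.3% L-arabinose, DNA abundance read by NGS, three biological replicates, DESeq2 with apeglm shrinkage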
Assay: shrunken log2 fold change of peptide-encoding DNA abundance (4.5 h post-induction vs induction); higher = less antimicrobial activity (less host growth inhibition)
Settings: time post-induction: 4.5 h; library: site-saturation at positions 5, 18, 19, 20
Property: shrunken log2 fold change; scope: individual sequences
Attribute measured: shrunken log2 fold change

Sequence data	Attribute measured	Data value
RRIRTRPPRLPRPRPRPLHKPRP	shrunken log2 fold change	0.0334
RRIRRRPPRLPRPRPRPAYWPRP	shrunken log2 fold change	0.135
RRIRPRPPRLPRPRPRPHNHPRP	shrunken log2 fold change	-0.609
RRIRIRPPRLPRPRPRPSGHPRP	shrunken log2 fold change	-0.397
RRIRWRPPRLPRPRPRPPFHPRP	shrunken log2 fold change	0.0947
RRIRPRPPRLPRPRPRPLRHPRP	shrunken log2 fold change	0.21
RRIRKRPPRLPRPRPRPHDQPRP	shrunken log2 fold change	0.0273
RRIRWRPPRLPRPRPRPYPNPRP	shrunken log2 fold change	-0.58
RRIRERPPRLPRPRPRPIHPPRP	shrunken log2 fold change	-0.239
RRIRTRPPRLPRPRPRPLSHPRP	shrunken log2 fold change	-0.833
RRIRQRPPRLPRPRPRPDTDPRP	shrunken log2 fold change	-0.00927
RRIRTRPPRLPRPRPRPKMDPRP	shrunken log2 fold change	0.0289
RRIRNRPPRLPRPRPRPDWNPRP	shrunken log2 fold change	-0.212
RRIRYRPPRLPRPRPRPCTLPRP	shrunken log2 fold change	0.0191
RRIRERPPRLPRPRPRPRHAPRP	shrunken log2 fold change	-0.0387
RRIRNRPPRLPRPRPRPISPPRP	shrunken log2 fold change	-0.13
RRIRERPPRLPRPRPRPALNPRP	shrunken log2 fold change	0.0441
RRIRMRPPRLPRPRPRPVTHPRP	shrunken log2 fold change	0.0493
RRIRHRPPRLPRPRPRPVCCPRP	shrunken log2 fold change	-0.0885
RRIRARPPRLPRPRPRPVKQPRP	shrunken log2 fold change	-0.0614
RRIRDRPPRLPRPRPRPLIMPRP	shrunken log2 fold change	-0.0616
RRIRHRPPRLPRPRPRPCRDPRP	shrunken log2 fold change	0.0154
RRIRCRPPRLPRPRPRPHKWPRP	shrunken log2 fold change	-0.174
RRIRSRPPRLPRPRPRPIALPRP	shrunken log2 fold change	-0.385
RRIRGRPPRLPRPRPRPHLEPRP	shrunken log2 fold change	0.381
RRIRYRPPRLPRPRPRPTISPRP	shrunken log2 fold change	-0.893
RRIRARPPRLPRPRPRPRWVPRP	shrunken log2 fold change	0.267
RRIRMRPPRLPRPRPRPCWTPRP	shrunken log2 fold change	-0.218
RRIRRRPPRLPRPRPRPWMTPRP	shrunken log2 fold change	0.0417
RRIRYRPPRLPRPRPRPRKNPRP	shrunken log2 fold change	-0.268
RRIRERPPRLPRPRPRPHSEPRP	shrunken log2 fold change	-0.148
RRIRNRPPRLPRPRPRPEGDPRP	shrunken log2 fold change	-0.043
RRIRFRPPRLPRPRPRPDAVPRP	shrunken log2 fold change	-0.0144
RRIRIRPPRLPRPRPRPFEDPRP	shrunken log2 fold change	-0.207
RRIRWRPPRLPRPRPRPIQGPRP	shrunken log2 fold change	0.265
RRIRIRPPRLPRPRPRPSAGPRP	shrunken log2 fold change	-0.334
RRIRARPPRLPRPRPRPVNTPRP	shrunken log2 fold change	-0.0807
RRIRYRPPRLPRPRPRPSHGPRP	shrunken log2 fold change	-0.274
RRIRLRPPRLPRPRPRPCKNPRP	shrunken log2 fold change	-0.0458
